These data points were gathered from patent US7423051B2.

SYSTEM UNDER TEST: human cyclin D1-CDK4 (Homo sapiens, UniProt P11802)
Construct: GST (N); made in house; host or cells: High Five insect cells (baculovirus)
Sequence (P11802 whole entry): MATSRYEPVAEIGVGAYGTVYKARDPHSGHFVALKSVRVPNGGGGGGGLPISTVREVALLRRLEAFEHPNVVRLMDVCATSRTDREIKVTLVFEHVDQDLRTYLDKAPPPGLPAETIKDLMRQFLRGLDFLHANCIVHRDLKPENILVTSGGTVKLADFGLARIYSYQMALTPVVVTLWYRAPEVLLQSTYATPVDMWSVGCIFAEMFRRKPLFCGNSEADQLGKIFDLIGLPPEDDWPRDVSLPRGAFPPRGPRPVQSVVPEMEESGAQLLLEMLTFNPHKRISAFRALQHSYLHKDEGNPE
Sequence (P24385 whole entry partner): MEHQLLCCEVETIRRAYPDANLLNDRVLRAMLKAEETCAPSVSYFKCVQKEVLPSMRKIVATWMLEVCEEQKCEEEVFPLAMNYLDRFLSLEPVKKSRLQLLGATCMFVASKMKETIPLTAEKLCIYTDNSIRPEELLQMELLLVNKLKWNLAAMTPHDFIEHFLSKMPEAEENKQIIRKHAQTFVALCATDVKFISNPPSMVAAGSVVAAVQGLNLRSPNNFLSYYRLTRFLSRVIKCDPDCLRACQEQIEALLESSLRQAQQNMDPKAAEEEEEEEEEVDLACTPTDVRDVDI
METHOD DESCRIPTION: CDK4 HTRF kinase assay (Ki measurement)
Format: biochemical
RUN PARAMETERS: Rb substrate, ATP at 3x Km, Ki=IC50/(1+S/Km)
pKi: −log10 of the molar value.

{"STRUCTURE AS SMILES": "COc1ccc(F)c(F)c1C(=O)c1ccc(NC2CCN(S(C)(=O)=O)CC2)nc1N", "pKi": 7.77}
{"STRUCTURE AS SMILES": "COc1ccc(F)cc1C(=O)c1ccc(NC2CCN(S(C)(=O)=O)CC2)nc1N", "pKi": 7.40}
{"STRUCTURE AS SMILES": "COc1cc(Cl)c(F)cc1C(=O)c1ccc(NC2CCN(S(C)(=O)=O)CC2)nc1N", "pKi": 8.10}
